Taken from patent US20110040088A1.

- test_system: UniProt P32305
Counter-ions that a name gives are not always drawn.
Please assign false whenever Ki is at or above 30 nM, and true whenever it is below.

Input line: Just wondering, is Ki of Clc1ccc(-c2nn(Cc3ccccc3)c3c2CCNCC3)cc1 [Example 273, citrate salt] below 30 nM?
Output line: true

Input line: For this compound, is Ki lower than 30 nM? Cc1ccccc1Cn1nc(-c2ccc(Cl)cc2)c2c1CCNCCC2
Output line: false

Input line: Given the entry c1ccc(Cn2nc3c(c2-c2ccccc2)CCNCC3)cc1 , would its reported Ki be below 30 nM?
Output line: false

Input line: For this compound, is Ki lower than 30 nM? Clc1ccc(-c2nn(Cc3ccncc3)c3c2CCNCC3)cc1
Output line: true

Input line: Determine if Clc1ccc(-c2c3c(nn2C2CCCC2)CCNCC3)cc1 shows Ki strictly lower than 30 nM.
Output line: false

Input line: Determine whether this compound shows Ki lower than 30 nM (ties excluded): CC(C)n1nc2c(c1-c1ccc([N+](=O)[O-])cc1)CCNCC2
Output line: false

Input line: Regarding Cc1ccc(-c2c3c(nn2C2CCC2)CCNCC3)cc1 , kindly confirm whether its Ki is beneath 30 nM.
Output line: false

Input line: Below 30 nM on Ki? Entry CCc1ccc(-c2c3c(nn2CC)CCNCC3)cc1
Output line: true

====

- test_system: human recombinant 5-HT2B receptor (Homo sapiens)
- Sequence (P41595 whole entry): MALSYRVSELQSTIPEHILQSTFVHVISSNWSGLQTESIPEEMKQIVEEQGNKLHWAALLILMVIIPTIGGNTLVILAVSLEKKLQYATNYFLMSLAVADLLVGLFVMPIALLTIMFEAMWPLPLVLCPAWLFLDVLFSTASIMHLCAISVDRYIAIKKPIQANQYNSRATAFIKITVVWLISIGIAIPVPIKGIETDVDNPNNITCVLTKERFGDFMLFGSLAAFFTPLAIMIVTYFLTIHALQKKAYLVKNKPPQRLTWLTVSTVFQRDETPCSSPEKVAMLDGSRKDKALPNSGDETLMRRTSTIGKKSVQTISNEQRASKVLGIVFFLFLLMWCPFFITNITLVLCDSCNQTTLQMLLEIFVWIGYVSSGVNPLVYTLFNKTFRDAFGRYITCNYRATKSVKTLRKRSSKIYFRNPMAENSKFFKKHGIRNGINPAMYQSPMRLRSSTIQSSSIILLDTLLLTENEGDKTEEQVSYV
- method_summary: 5-HT2B receptor radioligand binding ([3H]mesulergine, CHO membranes);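 further: competitive displacement binding on membranes of CHO cells stably expressing the receptor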
- setup_conditions: read-out: Ki 5-HT2B; h5-HT2B in CHO membranes, [3H]mesulergine
Task for the reader: assign each of the following molecules its reported Ki.
# number only, unit nM dropped from output

Consider Fc1ccc(-c2c3c(nn2C2CC2)CCNCC3)cc1 [Example 282] . Its measured Ki is 20

// recorded Ki for CC(C)n1nc2c(c1-c1ccc(C#N)cc1)CCNCC2 [Example 212] : 12

====

- test_system: rat 5-HT7a receptor (Rattus norvegicus, UniProt P32305)
- Sequence (P32305 whole entry): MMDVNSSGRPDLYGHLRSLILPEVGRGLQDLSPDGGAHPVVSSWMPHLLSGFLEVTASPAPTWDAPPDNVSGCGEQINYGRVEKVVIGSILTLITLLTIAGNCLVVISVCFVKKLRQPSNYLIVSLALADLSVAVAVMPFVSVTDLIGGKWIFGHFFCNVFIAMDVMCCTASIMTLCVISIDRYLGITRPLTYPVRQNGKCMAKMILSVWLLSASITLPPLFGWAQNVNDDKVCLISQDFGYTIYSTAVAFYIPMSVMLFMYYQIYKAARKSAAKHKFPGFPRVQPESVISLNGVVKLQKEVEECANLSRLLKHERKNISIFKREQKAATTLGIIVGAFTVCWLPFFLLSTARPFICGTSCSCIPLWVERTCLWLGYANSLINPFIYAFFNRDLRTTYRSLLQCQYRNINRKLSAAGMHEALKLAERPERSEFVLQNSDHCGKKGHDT
measure_name: pKi
# pKi is unitless: minus log10 of the molar concentration; print number only

Notebook: CC(C)n1nc2c(c1-c1ccc(C#N)cc1)CCNCC2 , pKi read as 7.03

The recorded pKi for entry c1cc(-c2c3c(nn2C2CC2)CCNCC3)cs1 equals 7.54

For record c1ccc(Cn2nc(-c3cccs3)c3c2CCNCC3)cc1 the listed pKi is 8.05

The value of pKi measured for the molecule Fc1ccc(-c2c3c(nn2C2CCC2)CCNCC3)cc1 turned out to be 6.82

pKi recorded for this molecule, CCC(CC)n1nc2c(c1-c1ccc(F)c(C)c1)CCNCC2 , is 5.30

Given item Fc1cc(-c2c3c(nn2C2CCCC2)CCNCC3)ccc1Cl , the value recorded as its pKi is 6.51

Consider CCn1nc2c(c1-c1ccc(C)cc1)CCNCC2 . Its measured pKi is 8.30

Briefly, pKi measured for c1ccc(-c2c3c(nn2C2CCC2)CCNCC3)cc1 : 7.05

Summary for this molecule, CC1Cc2c(nn(C3CCCC3)c2-c2ccc(F)cc2)CCN1 (stereo not shown) : pKi is 6.89

Field pKi (entry CCC(CC)n1nc2c(c1-c1ccc(F)cc1)CCNCC2 ) reads 6.92

Recorded result, N#Cc1ccc(-c2c3c(nn2C2CC2)CCNCC3)cc1 , pKi: 6.47

Lab note: measured pKi of CCN1CCc2c(-c3ccc(Cl)cc3)nn(Cc3ccccc3)c2CC1 was 8.10

GET /value?item= CC(C)(C)n1nc2c(c1-c1ccccc1)CCNCC2 &field=pKi returns 7.52

// pKi lookup, molecule = Fc1cccc(Cn2nc(-c3ccc(Cl)cc3)c3c2CCNCC3)c1 , result: 8.10

Sure, the documented pKi for O=[N+]([O-])c1ccc(Cn2nc(-c3ccc(Cl)cc3)c3c2CCNCC3)cc1 is 7.40

The molecule identified as CN1CCc2c(-c3ccc(Cl)cc3)nn(Cc3ccccc3)c2CC1 registered its pKi at 8.40

For this molecule ( Fc1ccc(Cn2nc(-c3ccc(Cl)cc3)c3c2CCNCC3)c(F)c1 ), measured pKi is 8.05

Note to self: pKi recorded for Fc1ccc(Cn2nc(-c3ccc(Cl)cc3)c3c2CCNCC3)cc1 was 8.15

Value of measured pKi for the entry CC(C)Cn1nc(-c2ccc(Cl)cc2)c2c1CCNCC2 : 8.10

For record Cc1ccc(-c2c3c(nn2C2CCCC2)CC(C)NCC3)cc1 (stereo not shown) the listed pKi is 6.32

Reported pKi of Clc1ccc(-c2c3c(nn2C2CCCCC2)CCNCC3)cc1 : 7.07

Record summary for c1ccc(-c2c3c(nn2C2CCCC2)CCNCC3)cc1 : reported pKi = 8.00

Please fill in: pKi reported for CC1Cc2nn(C3CCCC3)c(-c3ccc(F)cc3)c2CCN1 (stereo not shown) = 5.28

The molecule identified as CCC(C)n1nc2c(c1-c1ccc(C(F)(F)F)cc1)CCNCC2 (stereo not shown) registered its pKi at 7.40

Sample Fc1ccc(-c2c3c(nn2C2CCCC2)CCNCC3)cc1 ; pKi observed: 7.05

According to the records, this molecule c1ccc(-c2c3c(nn2C2CCCCC2)CCNCC3)cc1 displays pKi of 7.10

Documented pKi of CC1Cc2nn(C(C)C)c(-c3ccccc3)c2CCN1 (stereo not shown) : 7.10

Record Clc1ccc(-c2nn(CC3CCCCC3)c3c2CCNCC3)cc1 . Reported pKi: 7.70

Clc1ccc(-c2nn(Cc3ccc4c(c3)OCO4)c3c2CCNCC3)cc1 has a reported pKi of 7.41

Per the records, this molecule ( Cc1ccc(-c2c3c(nn2C(C)C)CC(C)NCC3)cc1 (stereo not shown) ) has pKi equal to 7.92

Briefly, pKi measured for COc1ccc(CN2CCc3[nH]nc(-c4ccc(Cl)cc4)c3CC2)cc1OC : 7.12

The value of pKi measured for the molecule Clc1ccc(-c2nn(Cc3cccs3)c3c2CCNCC3)cc1 turned out to be 8.11

Record Cc1cccc(Cn2nc(-c3ccc(Cl)cc3)c3c2CCNCC3)c1 . Reported pKi: 8.30

Value of pKi reported for the molecule Cc1ccc(-c2cn(Cc3ccccc3)c3c2CNCC3)cc1 is 7.60

Form: molecule = CC1Cc2nn(C(C)C)c(-c3ccc(F)cc3)c2CCN1 (stereo not shown) ; pKi = 7.52

Kindly note the recorded pKi for CC1CN(Cc2ccccc2)CCc2c1nn(C(C)C)c2-c1ccc(F)cc1 (stereo not shown) , which is 6.22

Note to self: pKi recorded for COc1ccc(-c2c3c(nn2C(C)C)CCNCC3)cc1 was 7.68

// pKi lookup, molecule = FC(F)(F)c1ccc(-c2c3c(nn2C2CCC2)CCNCC3)cc1 , result: 7.10

Summary for this molecule, COc1ccc(-c2c3c(nn2C2CCCC2)CCNCC3)cc1 : pKi is 7.26

get_value(item= CCC(CC)Cn1nc(-c2ccc(Cl)cc2)c2c1CCNCC2 , readout=pKi) returns 7.49
